IC50 values for the compounds below.
Target: αIIbβ3 (Homo sapiens, UniProt P05106+P08514)
Construct: selected purified integrins were separately immobilized in Titertek microtiter wells
Sequence (P08514 32-887 limits assumed): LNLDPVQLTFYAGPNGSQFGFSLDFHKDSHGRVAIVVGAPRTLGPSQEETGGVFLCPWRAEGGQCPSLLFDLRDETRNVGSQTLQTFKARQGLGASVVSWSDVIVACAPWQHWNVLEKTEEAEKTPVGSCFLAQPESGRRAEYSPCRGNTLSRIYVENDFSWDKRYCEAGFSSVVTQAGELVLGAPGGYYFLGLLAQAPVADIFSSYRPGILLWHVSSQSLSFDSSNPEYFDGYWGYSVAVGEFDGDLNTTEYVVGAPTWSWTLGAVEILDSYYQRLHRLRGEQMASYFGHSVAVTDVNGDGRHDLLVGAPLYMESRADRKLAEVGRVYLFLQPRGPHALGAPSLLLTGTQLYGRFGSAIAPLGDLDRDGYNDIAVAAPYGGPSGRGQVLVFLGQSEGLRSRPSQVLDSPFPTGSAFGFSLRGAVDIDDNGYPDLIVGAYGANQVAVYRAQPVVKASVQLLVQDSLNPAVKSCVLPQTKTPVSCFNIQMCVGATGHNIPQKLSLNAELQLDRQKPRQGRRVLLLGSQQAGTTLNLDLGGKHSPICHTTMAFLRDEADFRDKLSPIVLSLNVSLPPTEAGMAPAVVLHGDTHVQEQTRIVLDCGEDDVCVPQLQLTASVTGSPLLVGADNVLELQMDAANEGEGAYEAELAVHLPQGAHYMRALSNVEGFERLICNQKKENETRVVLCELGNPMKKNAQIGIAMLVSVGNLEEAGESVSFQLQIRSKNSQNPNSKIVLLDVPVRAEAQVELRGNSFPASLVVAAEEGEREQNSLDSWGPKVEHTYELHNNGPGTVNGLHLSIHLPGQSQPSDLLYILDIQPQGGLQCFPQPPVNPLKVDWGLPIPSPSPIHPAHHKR
Sequence (P08514 891-1039 partner limits assumed): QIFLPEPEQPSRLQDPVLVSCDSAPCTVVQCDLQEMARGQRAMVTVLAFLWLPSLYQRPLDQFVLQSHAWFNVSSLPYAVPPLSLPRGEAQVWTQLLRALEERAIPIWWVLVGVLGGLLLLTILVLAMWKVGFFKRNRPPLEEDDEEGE
Sequence (P05106 27-788): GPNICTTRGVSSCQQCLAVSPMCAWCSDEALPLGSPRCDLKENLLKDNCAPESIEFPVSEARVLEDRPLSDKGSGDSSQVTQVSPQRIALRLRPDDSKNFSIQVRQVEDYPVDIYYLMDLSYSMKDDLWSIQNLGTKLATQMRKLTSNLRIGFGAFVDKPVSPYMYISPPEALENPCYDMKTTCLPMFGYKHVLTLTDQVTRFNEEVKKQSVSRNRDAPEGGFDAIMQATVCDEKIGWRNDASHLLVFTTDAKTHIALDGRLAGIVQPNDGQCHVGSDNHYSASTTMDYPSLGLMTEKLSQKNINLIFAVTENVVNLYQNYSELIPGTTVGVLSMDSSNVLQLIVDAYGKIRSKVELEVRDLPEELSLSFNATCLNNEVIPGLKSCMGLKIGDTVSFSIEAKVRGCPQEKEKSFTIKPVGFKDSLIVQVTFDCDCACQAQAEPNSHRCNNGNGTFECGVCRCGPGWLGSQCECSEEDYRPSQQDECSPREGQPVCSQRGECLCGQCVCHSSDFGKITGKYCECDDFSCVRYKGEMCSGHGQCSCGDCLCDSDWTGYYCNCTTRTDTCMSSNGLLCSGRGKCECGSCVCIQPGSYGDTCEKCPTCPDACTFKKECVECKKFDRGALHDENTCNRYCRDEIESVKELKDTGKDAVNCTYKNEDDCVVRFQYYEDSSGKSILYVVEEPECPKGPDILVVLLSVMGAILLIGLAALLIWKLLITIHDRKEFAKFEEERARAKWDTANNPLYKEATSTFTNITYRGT
Experiment: Ligand-receptor binding assay, immobilized αIIbβ3
Details: radiolabeled fibrinogen; average of duplicate data points ± standard deviation; read-out: αIIbβ3 (IC50 μM)
Where a SMILES comes first, the peptide text is derived from it. [ ]: non-standard residue; d: D form.
Numbers only here, please. The scale is µM.

Notebook: CC(C)[C@@H]1NC(=O)[C@H](Cc2ccccc2)NC(=O)[C@H](CC(=O)O)NC(=O)[C@@H](C)NC(=O)[C@H](CCCNC(=N)N)NC1=O [Peptide 62186, cyclo (RaDFV)] (cyclo(R[dA]DFV)) , IC50 read as 100
